Test description: Primary qHTS to identify inhibitors of SARS-CoV-2 cell entry (AID 1645846); also: nearly all actives have a fitted effect of over 45% in size
Condition description: SARS-CoV-2 pseudovirus cell entry assay, luminescence; at 57.1 µM (top of the series) unless noted
Records with an inconclusive call do not appear.
# activity change, negative = inhibition annotations
Observable: activity change, negative = inhibition (%)

CC1=C2[C@H]3OC(=O)[C@@H](C)[C@@H]3CC[C@@]2(C)C=CC1=O : 2.07
Cc1c(N(C)C)c(=O)n(-c2ccccc2)n1C : -10.1
CN1CCN(c2c(F)cc3c(=O)c(C(=O)O)cn(CCF)c3c2F)CC1 : 2.09
C/C=C/c1ccc(O)c(OC)c1 : -1.3
CC(=O)OCC(=O)[C@@]12N=C(C)O[C@@H]1C[C@H]1[C@@H]3CCC4=CC(=O)C=C[C@]4(C)[C@H]3[C@@H](O)C[C@@]12C : -14
C[C@@H]1CN(C2CCC(C#N)(c3ccc(F)cc3)CC2)CC[C@]1(C(=O)O)c1ccccc1 (some centres not stated) : -31.8
Cn1c(=O)c2c(ncn2CC2OCCO2)n(C)c1=O : -5.86
O=C(O)C(=O)Nc1cccc(-c2nn[nH]n2)c1 : -0.181
CN1CCC(=C2c3ccccc3CC(=O)c3sccc32)CC1 : -26
CCOc1ccc(C(=O)OCCN(CC)CC)cc1 : -1.6
OC1C(O)C(O)C(O)C(O)C1O (configuration not stated) : -22.4
Cc1ncc(COP(=O)(O)O)c(C=O)c1O : -19
COc1cc([C@H]2Oc3cc([C@H]4Oc5cc(O)cc(O)c5C(=O)[C@@H]4O)ccc3O[C@@H]2CO)ccc1O : -12.9
CCCCNc1cc(C(=O)O)cc(S(N)(=O)=O)c1Oc1ccccc1 : -16.4
CN(CCCN1c2ccccc2CCc2ccccc21)CC(=O)c1ccc(Cl)cc1 : -5.87
COC(=O)C1=C(C)NC(COC(N)=O)=C(C(=O)OC(C)C)C1c1cccc(Cl)c1Cl (configuration not stated) : -3.4
COc1ccc(CN(CCN(C)C)c2ccccn2)cc1 : -6.08
O=C(O)c1nn(Cc2ccc(Cl)cc2Cl)c2ccccc12 : -33.8
CCOC(=O)c1ccc(NC(=O)CN2CCCCC2)cc1 : -7.85
CC(=O)Oc1ccc2c(c1)CC[C@@H]1[C@@H]2CC[C@]2(C)[C@@H](O)CC[C@@H]12 : -11
CCCN(CCC)C(=O)C(CCC(=O)O)NC(=O)c1ccccc1 (configuration not stated) : 2.74
NC(=O)C1(N2CCCCC2)CCN(CCCC(=O)c2ccc(F)cc2)CC1 : 3.21
CCCCCOc1ccc(C2SC(=O)NC2=O)cc1OCC (configuration not stated) : -11.6
CN(C)C(=O)Oc1cccc([N+](C)(C)C)c1 : -1.02
C[C@H]1COc2c(C3(N)CC3)c(F)cc3c(=O)c(C(=O)O)cn1c23 : -12.8
O=C1C(c2[nH]c3ccccc3c2O)=Nc2ccccc21 : -0.955
CCOC(=O)[C@H](CCc1ccccc1)N[C@H]1CS[C@H](c2cccs2)CN(CC(=O)O)C1=O : -4.69
CCCCCCc1ccc(O)cc1O : -11.8
Oc1ccc([C@H]2CNCc3c2ccc(O)c3O)cc1O : 1.13
C1CCN2C[C@@H]3C[C@@H](CN4CCCC[C@@H]34)[C@H]2C1 : -16.5
O=S1(=O)OC(c2ccc(O)cc2)(c2ccc(O)cc2)c2ccccc21 : 4.87
Cc1cc(C(C)(C)C)c(O)c(C)c1CC1=NCCN1 : -17.1
c1ccc(CNCCNCc2ccccc2)cc1 : -30.1
C/C=C/C(=O)N(CC)c1ccccc1C : -9.15
CCOC(=O)Nc1ccc(NCc2ccc(F)cc2)nc1N : -22.5
CC(C)C(=O)Nc1cccc(C2CN3CCSC3=N2)c1 (configuration not stated) : -6.4
Nc1ccc(S(=O)(=O)Nc2nccs2)cc1 : 4.2

====

Condition description: Ebola virus entry assay, blue channel fluorescence
The source made the active and inactive calls. The rule behind the calls is not given here.
Outcome codes: active, inactive

CC(C)[N+](C)(CCC(C(N)=O)(c1ccccc1)c1ccccc1)C(C)C : inactive
CC(=O)OCC(=O)[C@@]1(O)CCC2C3CCC4=CC(=O)CC[C@]4(C)C3[C@@H](O)C[C@@]21C (stereo partly specified) : inactive
CCOC(=O)[C@H](CCc1ccccc1)N[C@H]1CCc2ccccc2N(CC(=O)O)C1=O : active
CCCCNc1ccc(C(=O)OCCN(CC)CC)cc1 : active
CCCCC1(COC(=O)CCC(=O)O)C(=O)N(c2ccccc2)N(c2ccccc2)C1=O : inactive
CN(C)CCCOc1nn(Cc2ccccc2)c2ccccc12 : active
COc1ccc2cc3[n+](cc2c1OC)CCc1cc2c(cc1-3)OCO2 : inactive
C[C@]12CC[C@@H]3c4ccc(O)cc4CC[C@H]3[C@@H]1CC[C@@H]2OC(=O)CCC1CCCC1 : inactive
CCCCCCCCCCCCCCCC[n+]1ccccc1 : active
CC(C)(C)c1ccc(C(=O)CCCN2CCC(OC(c3ccccc3)c3ccccc3)CC2)cc1 : active
COc1cc(C(=O)NCCCCCC(=O)O)cc(OC)c1OC : inactive
c1ccc2[nH]c(-c3cscn3)nc2c1 : inactive
C=Cc1c(C)c2cc3[nH]c(cc4nc(cc5nc(cc1[nH]2)C(C)=C5CCC(=O)O)C(CCC(=O)O)=C4C)c(C)c3C=C : inactive
c1ccc(OCc2ccc(CCCN3CCOCC3)cc2)cc1 : active
CCOC(=O)c1c(N)sc2c1CCN(Cc1ccccc1)C2 : inactive
CCC(=O)Oc1ccc2c(c1)CC[C@@H]1[C@@H]2CC[C@@]2(C)[C@H]1C[C@@H](OC(=O)CC)[C@@H]2OC(=O)CC : inactive
C[N+]1(C)[C@@H]2CC[C@H]1CC(OC(=O)C(CO)c1ccccc1)C2 (stereo partly specified) : inactive
Cc1c(Cl)cccc1Nc1ccccc1C(=O)O : inactive
CCC(C(=O)OCCOCCN(CC)CC)c1ccccc1 (stereo unspecified) : active
NS(=O)(=O)c1cc(C(=O)O)c(NCc2ccco2)cc1Cl : inactive
CCN(CC)CCOc1ccc(C(O)(Cc2ccc(Cl)cc2)c2ccc(C)cc2)cc1 (stereo unspecified) : active

====

Test description: qHTS of pediatric cancer cell lines to identify multiple opportunities for drug repurposing: Primary screen for Rh41 cells (AID 1347108); also: nearly all actives have a fitted effect of over 70% in size
Condition description: Rh41 rhabdomyosarcoma viability, CellTiter-Glo luminescence, 48 h; series mostly up to 46 µM
Inconclusive results are not listed. Active and inactive are the calls of the source. Calls come from the whole dose curve; as a rule, active = well fitted cell-killing curve with a large enough effect; inconclusive = small, poorly fitted or top-dose-only effect; inactive = no such curve, though single readings can be large or run the other way.
Outcome codes: active, inactive

Cc1ccc([N+](=O)[O-])[c]2c1[O][Hg]2 : active
CCOC(=O)C(c1c(O)c2ccccc2oc1=O)c1c(O)c2ccccc2oc1=O : inactive
O=C1NCN(c2ccccc2)C12CCN(CCCOc1ccc(F)cc1)CC2 : inactive
ClCc1cccc(Cl)c1 : inactive
CN1C(=O)CN=C(c2ccccc2)c2cc(Cl)ccc21 : inactive
C[C@@H]1C[C@@H]([C@H](O)CC2CC(=O)NC(=O)C2)C(=O)[C@@H](C)C1 : active
CNC(C)Cc1ccccc1OC (stereo unspecified) : inactive
Nc1ccc(Cl)cc1C(=O)c1ccccc1F : inactive
CCCOC(=O)Cc1ccc(OCC(=O)N(CC)CC)c(OC)c1 : inactive
COc1ccc(OC)c(CC(C)N)c1 (stereo unspecified) : inactive
O=C1CN2CCOC2(c2ccccc2Cl)c2cc(Cl)ccc2N1 (stereo unspecified) : inactive
C[C@H](N)[C@H](O)c1ccc(O)c(O)c1 : inactive
CNC(=O)Oc1cccc2ccccc12 : inactive
O=C(CBr)Nc1ccc(Cl)cc1C(=O)c1ccccc1F : inactive
COc1ccc2[nH]cc(CCN(C(C)C)C(C)C)c2c1 : inactive
ClC1=C(Cl)C2(Cl)C(CBr)CC1(Cl)C2(Cl)Cl (stereo unspecified) : inactive
CN1C(=O)CN=C(c2ccccc2)c2cc([N+](=O)[O-])ccc21 : inactive
CCCCCCCCC(=O)NCc1ccc(O)c(OC)c1 : inactive
CC(C)(O)C(Cl)(Cl)Cl : inactive
COc1cc(C[C@@H](C)N)c(OC)cc1Br : inactive
OC(c1ccccc1)(c1ccccc1)C1CCNCC1 : inactive

====

Condition description: Ebola virus entry assay, ratio channel
Active and inactive are the calls of the source. The rule behind the calls is not given here.
Outcome codes: True for active, False for inactive

CCCCCCCCCCCCCCNCCO : True
CN1CCC(Nc2ncc3ncnc(Nc4ccc(F)c(Cl)c4)c3n2)CC1 : False
COC(=O)C1=C(C)NC(COC(N)=O)=C(C(=O)OC(C)C)C1c1cccc(Cl)c1Cl (stereo not drawn) : True
CCN(CC)CC(=O)Nc1c(C)cccc1C : False
CCOc1ccc(C(=O)OCCN(CC)CC)cc1 : False
CC(C)(C)c1nnc(NS(=O)(=O)c2ccc(N)cc2)s1 : False
OC[C@H]1O[C@@H](O[C@@H]2[C@@H](CO)O[C@](O)(CO)[C@H]2O)[C@H](O)[C@@H](O)[C@H]1O : False
Cc1cc(O)c(C(C)C)cc1Cl : False
CCc1cccc(N(C)C(N)=Nc2cccc3ccccc23)c1 : True
Clc1ccc(C(Cn2ccnc2)OCc2ccsc2Cl)c(Cl)c1 (stereo not drawn) : True
CCOC(=O)C(=O)CCc1ccccc1 : False
C[C@]1(Cn2ccnn2)[C@H](C(=O)O)N2C(=O)C[C@H]2S1(=O)=O : True
Cc1cc(C)c(/C=C2\C(=O)Nc3ccccc32)[nH]1 : False
C[C@H](CN1CCOCC1)C(C(=O)N1CCCC1)(c1ccccc1)c1ccccc1 : False
CO[C@]1(NC(=O)CSC(F)F)C(=O)N2C(C(=O)O)=C(CSc3nnnn3CCO)CO[C@H]21 : False
CC(=O)c1ccc2c(c1)N(CCCN(C)C)c1ccccc1S2 : True
C[C@H](CCC(=O)O)[C@H]1CC[C@H]2[C@@H]3C(=O)C[C@@H]4CC(=O)CC[C@]4(C)[C@H]3CC(=O)[C@]12C : False
O=C(Nc1ccc([N+](=O)[O-])cc1Cl)c1cc(Cl)ccc1O : True
CC1(C)S[C@@H]2[C@H](N=CN3CCCCCC3)C(=O)N2[C@H]1C(=O)O : False
CCN(CC)C(=O)Nc1ccc(OCC(O)CNC(C)(C)C)c(C(C)=O)c1 (stereo not drawn) : False
Clc1ccc(C(OCCN2CCCCC2)c2ccccc2)cc1 (stereo not drawn) : True
CN1CCN(c2cc3c(cc2F)c(=O)c(C(=O)O)cn3-c2ccc(F)cc2)CC1 : False
C=CCNc1nc(NCC=C)nc(N2CCN(C(c3ccc(F)cc3)c3ccc(F)cc3)CC2)n1 : False
CC(C)=CCNc1ncnc2c1ncn2[C@@H]1O[C@H](CO)[C@@H](O)[C@H]1O : False
CN1CCN(c2cc3c(nn2)Oc2ccccc2N3C)CC1 : False
COc1ccc(CN(CCN(C)C)c2ncccn2)cc1 : False
O=C(O)Cc1ccc2c(c1)C(=O)c1ccccc1CO2 : False
O=S(=O)(O)NC1CCCCC1 : False
C/C=C/c1ccc(O)c(OC)c1 : False
NC(=O)C1(N2CCCCC2)CCN(CCCC(=O)c2ccc(F)cc2)CC1 : False
CC1Sc2c(C(=O)O)c(=O)c3cc(F)c(N4CCNCC4)cc3n21 (stereo not drawn) : False
C[N+]1(CC2COC(c3ccccc3)(c3ccccc3)O2)CCCCC1 (stereo not drawn) : False
CN(C)CCN(Cc1ccccc1)c1ccccn1 : True
